All figures here come from ChEMBL document CHEMBL1201862.

Test system: RXF 393
Procedure Summary: NCI tumour cell line growth inhibition, 48 h
The source made the active and inactive calls. Cut-off read from the data, not from the text of the source: active = GI50 up to about 1.1 µM and inactive = higher.

Compound: COC(=O)C1C2CC3C(OC(=O)C31)C2I (stereo unspecified)
GI50: > 10 µM (inactive)
--
Compound: CC(CN(C)C)C(=O)/C=C/c1ccc(Cl)c(Cl)c1 (stereo unspecified)
GI50: 12.6 µM (inactive)
--
Compound: CCCC[C@@H]1CCN2C[C@@H](O)[C@@H](O)[C@@H]2[C@H]1O
GI50: > 100 µM (inactive)
--
Compound: [O-][n+]1c2c([n+]([O-])c3ccccc31)-c1cccc3cccc-2c13
GI50: 21.2 µM (inactive)
--
Compound: Fc1cc(C2=C[C@H](c3ccc4c(c3)OCO4)NC(=S)N2)c(Cl)cc1Cl
GI50: 23 µM (inactive)
--
Compound: O=C(Nc1ccc(Cl)cc1)c1cc(S(=O)(=O)N2CCNNC2=O)c(S)cc1Cl
GI50: 17.4 µM (inactive)
--
Compound: NNC(=O)c1cc(Cl)ccc1NC(=O)C12CC3CC(CC(C3)C1)C2
GI50: 37.8 µM (inactive)
--
Compound: CN(Cc1cc(Br)cc(Br)c1O)Cc1c(O)ccc2ccccc12
GI50: 19.4 µM (inactive)
--
Compound: C#CCN(Cc1ccc2nc(-c3ccccc3)c(N)nc2c1)c1cc(OC)c(OC)c(OC)c1
GI50: 25.5 µM (inactive)
--
Compound: CC1(C)OC2C(=O)C=C(COCc3ccccc3)C2O1 (stereo unspecified)
GI50: 15.5 µM (inactive)
--
Compound: CC(=O)/C(=C\c1cccc([N+](=O)[O-])c1)C(=O)Nc1ccccc1C
GI50: > 100 µM (inactive)
